Values compiled from patent US20250263376A1.

Parameter Cytotoxicity study in B16F10 cells, % viability: see the listing below.
tested on: B16-F10 murine melanoma cell line; assay: Cytotoxicity (MTT) in B16-F10 murine melanoma cells; format: cell-based; conditions: 150 μM, 48 h
property: Cytotoxicity study in B16F10 cells, % viability (%)

[[record]]
compound = "O=C(/C=C/c1ccccc1)NCCCO"
unit_of_measure = "%"
val = 76.1

[[record]]
compound = "O=C(/C=C/c1ccccc1)NCCCCCCO"
unit_of_measure = "%"
val = 109.2

[[record]]
compound = "CC(C)C(CO)NC(=O)/C=C/c1ccc(Cl)cc1 (stereo not drawn)"
unit_of_measure = "%"
val = 85.9

[[record]]
compound = "O=C(/C=C/c1ccccc1)NCCCCO"
unit_of_measure = "%"
val = 108.9

[[record]]
compound = "O=C(/C=C/c1ccc(Cl)cc1)NCCCCCCO"
unit_of_measure = "%"
val = 30.3

[[record]]
compound = "O=C(/C=C/c1ccc(Cl)cc1)NCCO"
unit_of_measure = "%"
val = 73.7

